Consider the following compounds; for each one, report its Leucocyte.
Test system: mycoplasma-induced pulmonary fibrosis model (MPFH strain)
measurement_protocol: Mycoplasma-induced pulmonary fibrosis model
Assay type: in vivo, C57BL/6 mice
condition: MPFH mycoplasma + bleomycin; 120 mg/kg/d intragastric, once a day, 14 days, from two weeks after model

INSERT INTO results (compound, result_value) VALUES
  ('COc1ncnc2c1ncn2C(C)C', '7.15 10^9/L'),
  ('O=c1[nH]cnc2[nH]cnc12 [Hypoxanthine analogue A, reference compound]', '116.79 10^9/L');

# map each compound to its Leucocyte
1. CC(C)Oc1ncnc2c1ncn2C [Hypoxanthine analogue B, reference compound]
2. CCC(=O)Oc1ncnc2c1ncn2C(C)C
3. CC(=O)Oc1ncnc2c1ncn2C(C)C
4. CC(C)Oc1ncnc2c1N(C(C)C)CN2C(C)C

Result string:
118.58 10^9/L
6.12 10^9/L
6.70 10^9/L
6.18 10^9/L

For every record below, what is its Leucocyte?
1. CC(C)n1cnc2c(=O)[nH]cnc21
2. CC(C)Oc1ncnc2[nH]cnc12

Result string:
1: 6.42 10^9/L; 2: 7.01 10^9/L

Hi there! I need Leucocyte for each item below, if you can.
1. CC(C)n1cnc2nc[nH]c(=O)c21
2. CC(C)Oc1ncnc2ncn(C(C)C)c12
3. CCCOc1ncnc2c1ncn2C(C)C

Result string:
1: 6.05 10^9/L; 2: 6.79 10^9/L; 3: 6.79 10^9/L

----------
Tested on: coronavirus-induced pulmonary fibrosis model (HcoV-OC43)
measurement_protocol: Coronavirus-induced pulmonary fibrosis model
Assay type: in vivo, C57BL/6 mice
condition: serum; HcoV-OC43 + bleomycin; 120 mg/kg/d intragastric, 14 days, from two weeks after model
From the text: Experimental method: an in-vivo coronavirus-induced pulmonary fibrosis model mice was established: C57BL/6 mice (with weights being 22-25 g) were randomly and evenly divided into a plurality of groups, including blank control group, model group, Nintedanib positive control group, hypoxanthine analogue A group, hypoxanthine analogue B group, hypoxanthine analogue C group, compound 1 group, compound 2 group . . . compound 12 group, with 9 mice in each group. […]
Provide the recorded IL-1β for the entries that follow.
Give bare numbers, in pg/mL.

Reference set (4 entries):
INSERT INTO measurements (compound, assayed_system, result_value) VALUES
  ('CC(=O)Oc1ncnc2c1ncn2C(C)C [Compound 11]', 'coronavirus-induced pulmonary fibrosis model (HcoV-OC43)', 35.4),
  ('CC(C)n1cnc2nc[nH]c(=O)c21 [Compound 6]', 'coronavirus-induced pulmonary fibrosis model (HcoV-OC43)', 39.5),
  ('COc1ncnc2c1ncn2C(C)C [Compound 7]', 'coronavirus-induced pulmonary fibrosis model (HcoV-OC43)', 33.2),
  ('CC(C)Oc1ncnc2c1N(C(C)C)CN2C(C)C [Compound 10]', 'coronavirus-induced pulmonary fibrosis model (HcoV-OC43)', 37.7);

Attention now shifts to the item below.
Reported IL-1β of CC(C)n1cnc2c(=O)[nH]cnc21 [Compound 2] : 32.0

----------
Test system: novel coronavirus-induced pulmonary fibrosis model (COVID-19 novel coronavirus strains)
measurement_protocol: Novel coronavirus-induced pulmonary fibrosis model
Assay type: in vivo, C57BL/6 mice
condition: serum; COVID-19 novel coronavirus + bleomycin; 120 mg/kg/d intragastric, 14 days, from two weeks after model
I'd appreciate it if you could supply IL-1β values for the items below.
One number for each entry, in pg/mL.

// below: answered molecules
INSERT INTO assay_data (molecule, assayed_system, reported_endpoint, result_value) VALUES
  ('COC(=O)c1ccc2c(c1)NC(=O)/C2=C(\Nc1ccc(N(C)C(=O)CN2CCN(C)CC2)cc1)c1ccccc1 [Nintedanib, reference compound]', 'novel coronavirus-induced pulmonary fibrosis model (COVID-19 novel coronavirus strains)', 'IL-1β', 561.2),
  ('CC(C)Oc1ncnc2c1N(C(C)C)CN2C(C)C', 'novel coronavirus-induced pulmonary fibrosis model (COVID-19 novel coronavirus strains)', 'IL-1β', 38.1),
  ('CCC(=O)Oc1ncnc2c1ncn2C(C)C', 'novel coronavirus-induced pulmonary fibrosis model (COVID-19 novel coronavirus strains)', 'IL-1β', 38.9),
  ('COc1ncnc2c1ncn2C(C)C', 'novel coronavirus-induced pulmonary fibrosis model (COVID-19 novel coronavirus strains)', 'IL-1β', 39.9),
  ('CC(=O)Oc1ncnc2c1ncn2C(C)C', 'novel coronavirus-induced pulmonary fibrosis model (COVID-19 novel coronavirus strains)', 'IL-1β', 37.2);

For every listed record, write down its IL-1β.
1. CCCOc1ncnc2c1ncn2C(C)C
2. CC(C)Oc1ncnc2nc[nH]c12
3. CCOc1ncnc2c1ncn2C(C)C
4. CC(C)n1cnc2nc[nH]c(=O)c21
5. O=c1[nH]cnc2[nH]cnc12 [Hypoxanthine analogue A, reference compound]
6. CC(C)Oc1ncnc2[nH]cnc12

Result string:
1. 39.6
2. 37.5
3. 38.4
4. 38.7
5. 489.0
6. 36.4
